Source: patent US9233111B2

target: full-length human recombinant BTK (Homo sapiens (Human)); assay: Inhibition of Btk enzymatic activity (biochemical enzyme assay, Caliper); conditions: 30° C., 60 minutes
Assay endpoint: IC50 (nM)

Guide cases for IC50, answers given:
Cc1c(NC(=O)c2ccc(C(C)(C)O)cc2F)cc(F)cc1-c1ncnc2[nH]c(C3=CCOCC3)cc12 = 8
CC(=O)OCC(=O)N1CC=C(c2cc3c(-c4cc(F)cc(NC(=O)c5ccc(S(F)(F)(F)(F)F)cc5)c4C)ncnc3[nH]2)CC1 = 14
CN(C)C(=O)N1CC=C(c2cc3c(-c4ccc(F)c(NC(=O)c5ccc(C(C)(C)CO)cc5)c4)ncnc3[nH]2)CC1 = 6

P. CN(C)C(=O)N1CC=C(c2cc3c(-c4cccc(N5CCc6cc(C7CC7)ccc6C5=O)c4CO)ncnc3[nH]2)CC1
Q. Cc1c(NC(=O)c2ccc(C3CC3)cc2)cc(F)cc1-c1ncnc2[nH]c(C3=CCN(C(=O)CO)CC3)cc12
Ask | Which shows the larger IC50 value: P or Q ? Please respond with the label that marks your chosen entry.
Reply | P
(P: 17 nM, Q: 7 nM)

====

Biological target: full-length human recombinant BTK (Homo sapiens (Human))
Test: Inhibition of Btk enzymatic activity (biochemical enzyme assay, Caliper)
Details: 30° C., 60 minutes
Protocol: The inhibitory activity of the present compounds against Btk was assessed in a biochemical enzyme assay. […] Kinase reactions were analyzed on a Caliper LC3000 workstation by separating phosphorylated and unphosphorylated peptides and kinase activities were calculated from the amounts of newly formed phospho-peptide. Inhibition data were calculated by comparison to control reactions without enzyme (100% inhibition) and without inhibitors (0% inhibition). […]
Assay endpoint: IC50 (nM)

Cc1c(NC(=O)c2ccc(C(C)(C)C)cc2)cc(F)cc1-c1ncnc2[nH]c(C3=CCS(=O)(=O)CC3)cc12 = 35
CN(C)C1CC=C(c2cc3c(-c4cccc(NC(=O)c5ccc(C(C)(C)C)cc5)c4CO)ncnc3[nH]2)CC1 (stereo not shown) = 2

a. Cc1c(NC(=O)c2ccc(S(F)(F)(F)(F)F)cc2)cc(F)cc1-c1ncnc2[nH]c(C3=CCN(C(=O)N4CCCC4)CC3)cc12
b. Cc1c(NC(=O)c2ccc(C(C)(C)C)cc2)cc(F)cc1-c1ncnc2[nH]c(C3=CCNCC3)cc12
c. Cc1c(NC(=O)c2ccc(N3CCCCC3)cc2)cc(F)cc1-c1ncnc2[nH]c(C3=CCN(C(=O)N(C)C)CC3)cc12
d. Cc1c(NC(=O)c2ccc(C(C)(O)C(F)(F)F)cc2)cc(F)cc1-c1ncnc2[nH]c(C3=CCN(C(=O)N(C)C)CC3)cc12 (stereo not shown)
Ask | Arrange the 4 compounds by rising IC50, starting with the smallest. Your reply should list the labels following the order given in the request.
Reply | c, d, b, a

====

target: full-length human recombinant BTK (Homo sapiens (Human), UniProt Q06187); assay: Inhibition of Btk enzymatic activity (biochemical enzyme assay, Caliper); settings: 30° C., 60 minutes
Sequence (Q06187 whole entry): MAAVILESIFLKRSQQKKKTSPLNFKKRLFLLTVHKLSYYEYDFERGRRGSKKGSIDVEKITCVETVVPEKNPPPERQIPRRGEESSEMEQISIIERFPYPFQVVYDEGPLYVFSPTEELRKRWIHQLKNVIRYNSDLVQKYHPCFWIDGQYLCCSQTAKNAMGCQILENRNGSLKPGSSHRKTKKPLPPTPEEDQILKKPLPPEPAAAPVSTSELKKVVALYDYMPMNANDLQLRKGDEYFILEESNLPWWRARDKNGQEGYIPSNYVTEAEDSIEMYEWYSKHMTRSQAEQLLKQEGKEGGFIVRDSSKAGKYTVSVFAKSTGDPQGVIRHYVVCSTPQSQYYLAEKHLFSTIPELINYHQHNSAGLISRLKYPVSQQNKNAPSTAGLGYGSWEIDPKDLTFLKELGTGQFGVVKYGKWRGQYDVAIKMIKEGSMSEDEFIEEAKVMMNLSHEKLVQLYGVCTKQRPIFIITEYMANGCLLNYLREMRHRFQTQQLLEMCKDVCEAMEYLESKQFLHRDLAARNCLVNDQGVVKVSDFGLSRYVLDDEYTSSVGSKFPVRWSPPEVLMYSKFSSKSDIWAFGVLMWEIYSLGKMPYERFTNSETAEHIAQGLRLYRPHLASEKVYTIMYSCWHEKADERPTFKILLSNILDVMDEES
pIC50: −log10 of the molar value.
Assay endpoint: pIC50

Guide cases for pIC50, answers given:
Cc1c(NC(=O)c2ccc3ccn(C)c3n2)cc(F)cc1-c1ncnc2[nH]c(C3=CCN(C(=O)N(C)C)CC3)cc12 = 7.80
Cc1c(NC(=O)c2cc3c(s2)CCC(C)C3)cc(F)cc1-c1ncnc2[nH]c(C3=CCN(C(=O)N(C)C)CC3)cc12 (stereo not shown) = 8.30
CN(C)C(=O)N1CC=C(c2cc3c(-c4ccc(F)c(NC(=O)c5ccc(C6CC6)cc5)c4)ncnc3[nH]2)CC1 = 8.22
CC(C)(C)c1ccc(C(=O)Nc2cccc(-c3ncnc4[nH]c(C5=CCOCC5)cc34)c2CO)cc1 = 8.15

1. Cc1c(NC(=O)c2ccc(C(C)(C)C)cc2)cc(F)cc1-c1ncnc2[nH]c(C3=CCC(O)CC3)cc12 (stereo not shown)
2. Cc1c(NC(=O)c2ccc(C(C)(C)C)cc2)cccc1-c1ncnc2[nH]c(C3=CCN(S(C)(=O)=O)CC3)cc12
Ask | Of 1 versus 2 , which is the one with smaller reported pIC50? Please respond with the label that marks your chosen entry.
Reply | 1
(1: 7.34, 2: 7.77)

I. Cc1c(NC(=O)c2ccc(OC(C)C)cc2)cc(F)cc1-c1ncnc2[nH]c(C3=CCN(C(=O)N(C)C)CC3)cc12
II. CN(C)C(=O)N1CC=C(c2cc3c(-c4cccc(N5CCc6cc(C(C)(C)C)ccc6C5=O)c4CO)ncnc3[nH]2)CC1
III. Cc1c(NC(=O)c2ccc3c(c2)OCC3(C)C)cc(F)cc1-c1ncnc2[nH]c(C3=CCN(C(=O)N(C)C)CC3)cc12
IV. CN(C)C(=O)N1CC=C(c2cc3c(-c4ccc(F)c(NC(=O)N5CC(OC(C)(C)C)C5)c4)ncnc3[nH]2)CC1
Ask | Highest pIC50 first, then in falling order down to the smallest. Your reply should list the labels following the order given in the request.
Reply | IV, III, II, I
(IV: 8.70, III: 8.40, II: 8.10, I: 7.82)

I. COC(C)(C)c1ccc(C(=O)Nc2cc(F)cc(-c3ncnc4[nH]c(C5=CCN(C(=O)N(C)C)CC5)cc34)c2C)cc1
II. CC(C)(O)c1ccc(C(=O)Nc2cccc(-c3ncnc4[nH]c(C5=CCOCC5)cc34)c2CO)c(F)c1
Ask | Of I versus II , which is the one with smaller reported pIC50? Please respond with the label that marks your chosen entry.
Reply | II
